Cited source for all entries: the supplement of paper PMC9112550

- Tested on: Escherichia coli TOP10;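 further: peptides expressed intracellularly from a pBAD plasmid library in pooled LB shake-flask culture, induced with 0.3% L-arabinose, DNA abundance read by NGS, three biological replicates, DESeq2 with apeglm shrinkage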
- method.notes: shrunken log2 fold change of peptide-encoding DNA abundance (4.5 h post-induction vs induction); higher = less antimicrobial activity (less host growth inhibition)
- condition.set: time post-induction: 4.5 h; library: site-saturation at positions 5, 18, 19, 20

>  <sequence>
RRIRNRPPRLPRPRPRPYNPPRP

>  <shrunken log2 fold change>
-0.299

$$$$
>  <sequence>
RRIRRRPPRLPRPRPRPYSAPRP

>  <shrunken log2 fold change>
-0.137

$$$$
>  <sequence>
RRIRRRPPRLPRPRPRPIEKPRP

>  <shrunken log2 fold change>
0.149

$$$$
>  <sequence>
RRIRIRPPRLPRPRPRPQNYPRP

>  <shrunken log2 fold change>
-0.428

$$$$
>  <sequence>
RRIRWRPPRLPRPRPRPRGSPRP

>  <shrunken log2 fold change>
0.495

$$$$
>  <sequence>
RRIRPRPPRLPRPRPRPRCDPRP

>  <shrunken log2 fold change>
0.0398

$$$$
>  <sequence>
RRIRMRPPRLPRPRPRPAQWPRP

>  <shrunken log2 fold change>
0.533

$$$$
>  <sequence>
RRIRYRPPRLPRPRPRPELTPRP

>  <shrunken log2 fold change>
0.075

$$$$
>  <sequence>
RRIRMRPPRLPRPRPRPRAEPRP

>  <shrunken log2 fold change>
1.73

$$$$
>  <sequence>
RRIRGRPPRLPRPRPRPRMCPRP

>  <shrunken log2 fold change>
0.197

$$$$
>  <sequence>
RRIRVRPPRLPRPRPRPNGPPRP

>  <shrunken log2 fold change>
0.144

$$$$
>  <sequence>
RRIRCRPPRLPRPRPRPERDPRP

>  <shrunken log2 fold change>
0.325

$$$$
>  <sequence>
RRIRVRPPRLPRPRPRPRTKPRP

>  <shrunken log2 fold change>
0.0796

$$$$
>  <sequence>
RRIRRRPPRLPRPRPRPIKHPRP

>  <shrunken log2 fold change>
0.0383

$$$$
>  <sequence>
RRIRIRPPRLPRPRPRPCDEPRP

>  <shrunken log2 fold change>
0.0357

$$$$
>  <sequence>
RRIRHRPPRLPRPRPRPKKYPRP

>  <shrunken log2 fold change>
-0.806

$$$$
>  <sequence>
RRIRMRPPRLPRPRPRPRRHPRP

>  <shrunken log2 fold change>
1.02

$$$$
>  <sequence>
RRIRWRPPRLPRPRPRPTTEPRP

>  <shrunken log2 fold change>
0.207

$$$$
>  <sequence>
RRIRNRPPRLPRPRPRPSLKPRP

>  <shrunken log2 fold change>
-0.47

$$$$
>  <sequence>
RRIRERPPRLPRPRPRPDNSPRP

>  <shrunken log2 fold change>
-0.981

$$$$
>  <sequence>
RRIRARPPRLPRPRPRPPIYPRP

>  <shrunken log2 fold change>
0.0905

$$$$
>  <sequence>
RRIRYRPPRLPRPRPRPQDDPRP

>  <shrunken log2 fold change>
-0.0017

$$$$
>  <sequence>
RRIRKRPPRLPRPRPRPCMVPRP

>  <shrunken log2 fold change>
0.309

$$$$
>  <sequence>
RRIRQRPPRLPRPRPRPRDFPRP

>  <shrunken log2 fold change>
0.984

$$$$
>  <sequence>
RRIRCRPPRLPRPRPRPWACPRP

>  <shrunken log2 fold change>
-0.0929

$$$$
>  <sequence>
RRIRKRPPRLPRPRPRPVLMPRP

>  <shrunken log2 fold change>
0.471

$$$$
>  <sequence>
RRIRMRPPRLPRPRPRPVCWPRP

>  <shrunken log2 fold change>
0.833

$$$$
>  <sequence>
RRIRMRPPRLPRPRPRPWLSPRP

>  <shrunken log2 fold change>
0.0302

$$$$
>  <sequence>
RRIRQRPPRLPRPRPRPKKCPRP

>  <shrunken log2 fold change>
-0.0485

$$$$
>  <sequence>
RRIRSRPPRLPRPRPRPMTLPRP

>  <shrunken log2 fold change>
-0.103

$$$$
>  <sequence>
RRIRVRPPRLPRPRPRPRFHPRP

>  <shrunken log2 fold change>
-0.264

$$$$
>  <sequence>
RRIRMRPPRLPRPRPRPYKGPRP

>  <shrunken log2 fold change>
-0.046

$$$$
>  <sequence>
RRIRARPPRLPRPRPRPPKCPRP

>  <shrunken log2 fold change>
0.274

$$$$
>  <sequence>
RRIRMRPPRLPRPRPRPYRWPRP

>  <shrunken log2 fold change>
-0.00788

$$$$
